experiment: Biodistribution of radiometal-DOTA-BBN conjugates in CF1 normal mice; conditions: 1 hour post-injection
metric-name: Avg % ID, S. Intestine (% ID)
Record the value in % ID, omitting the unit from your answer.

What the record says about CSCC[C@H](NC(=O)[C@H](CC(C)C)NC(=O)[C@H](Cc1cnc[nH]1)NC(=O)CNC(=O)[C@@H](NC(=O)[C@H](C)NC(=O)[C@H](Cc1c[nH]c2ccccc12)NC(=O)[C@H](CCC(N)=O)NC(=O)CCNC(=O)CN1CCN(CC(=O)O)CCN(CC(=O)O)CCN(CC(=O)O)CC1)C(C)C)C(N)=O [149Pm-DOTA-β-Ala-BBN[7-14]NH2] : Avg % ID, S. Intestine is 0.95

Just so you know, measured Avg % ID, S. Intestine for CSCC[C@H](NC(=O)[C@H](CC(C)C)NC(=O)[C@H](Cc1cnc[nH]1)NC(=O)CNC(=O)[C@@H](NC(=O)[C@H](C)NC(=O)[C@H](Cc1c[nH]c2ccccc12)NC(=O)[C@H](CCC(N)=O)NC(=O)CCNC(=O)CN1CCN(CC(=O)O)CCN(CC(=O)O)CCN(CC(=O)O)CC1)C(C)C)C(N)=O [177Lu-DOTA-β-Ala-BBN[7-14]NH2] [metal not drawn] came out at 0.64

====

test: Biodistribution of radiometal-DOTA-BBN conjugates in CF1 normal mice; conditions: 1 hour post-injection
Can you tell me Avg % ID, Pancreas for the items I'm about to list?
Note: state the figure and append the unit.

Recorded Avg % ID, Pancreas (compound CSCC[C@H](NC(=O)[C@H](CC(C)C)NC(=O)[C@H](Cc1cnc[nH]1)NC(=O)CNC(=O)[C@@H](NC(=O)[C@H](C)NC(=O)[C@H](Cc1c[nH]c2ccccc12)NC(=O)[C@H](CCC(N)=O)NC(=O)CN1CCN(CC(=O)O)CCN(CC(=O)O)CCN(CC(=O)O)CC1)C(C)C)C(N)=O [177Lu-DOTA-0-BBN[7-14]NH2] [metal not drawn] ): 0.06 ± 0.10 % ID

Measured Avg % ID, Pancreas of CSCC[C@H](NC(=O)[C@H](CC(C)C)NC(=O)[C@H](Cc1cnc[nH]1)NC(=O)CNC(=O)[C@@H](NC(=O)[C@H](C)NC(=O)[C@H](Cc1c[nH]c2ccccc12)NC(=O)[C@H](CCC(N)=O)NC(=O)CN1CCN(CC(=O)O)CCN(CC(=O)O)CCN(CC(=O)O)CC1)C(C)C)C(N)=O [149Pm-DOTA-0-BBN[7-14]NH2] : 0.07 ± 0.01 % ID

====

assay: Biodistribution of radiometal-DOTA-BBN conjugates in CF1 normal mice; conditions: 1 hour post-injection
Under this convention, Criterion met denotes Avg % ID, Spleen strictly below 0.1 % ID and Criterion not met denotes Avg % ID, Spleen at or above 0.1 % ID.

// query Does CSCC[C@H](NC(=O)[C@H](CC(C)C)NC(=O)[C@H](Cc1c[nH]cn1)NC(=O)CNC(=O)[C@@H](NC(=O)[C@H](C)NC(=O)[C@H](Cc1c[nH]c2ccccc12)NC(=O)[C@H](CCC(N)=O)NC(=O)CCCCNC(=O)CN1CCN(CC(=O)O)CCN(CC(=O)O)CCN(CC(=O)O)CC1)C(C)C)C(N)=O [177Lu-DOTA-5-Ava-BBN[7-14]NH2] [metal not drawn] have Avg % ID, Spleen strictly under 0.1 % ID?
// result Criterion not met

// query Problem: For the compound CSCC[C@H](NC(=O)[C@H](CC(C)C)NC(=O)[C@H](Cc1c[nH]cn1)NC(=O)CNC(=O)[C@@H](NC(=O)[C@H](C)NC(=O)[C@H](Cc1c[nH]c2ccccc12)NC(=O)[C@H](CCC(N)=O)NC(=O)CCCCNC(=O)CN1CCN(CC(=O)O)CCN(CC(=O)O)CCN(CC(=O)O)CC1)C(C)C)C(N)=O [149Pm-DOTA-5-Ava-BBN[7-14]NH2] , is Avg % ID, Spleen under 0.1 % ID?
// result Criterion not met

// query A record lists CSCC[C@H](NC(=O)[C@H](CC(C)C)NC(=O)[C@H](Cc1cnc[nH]1)NC(=O)CNC(=O)[C@@H](NC(=O)[C@H](C)NC(=O)[C@H](Cc1c[nH]c2ccccc12)NC(=O)[C@H](CCC(N)=O)NC(=O)CN1CCN(CC(=O)O)CCN(CC(=O)O)CCN(CC(=O)O)CC1)C(C)C)C(N)=O [177Lu-DOTA-0-BBN[7-14]NH2] [metal not drawn] . Is its Avg % ID, Spleen below 0.1 % ID?
// result Criterion met

// query Dear reviewer, please state whether CSCC[C@H](NC(=O)[C@H](CC(C)C)NC(=O)[C@H](Cc1cnc[nH]1)NC(=O)CNC(=O)[C@@H](NC(=O)[C@H](C)NC(=O)[C@H](Cc1c[nH]c2ccccc12)NC(=O)[C@H](CCC(N)=O)NC(=O)CCCCCCCNC(=O)CN1CCN(CC(=O)O)CCN(CC(=O)O)CCN(CC(=O)O)CC1)C(C)C)C(N)=O [149Pm-DOTA-8-Aoc-BBN[7-14]NH2] has Avg % ID, Spleen strictly beneath 0.1 % ID.
// result Criterion not met

// query Does the reported Avg % ID, Spleen of CSCC[C@H](NC(=O)[C@H](CC(C)C)NC(=O)[C@H](Cc1c[nH]cn1)NC(=O)CNC(=O)[C@@H](NC(=O)[C@H](C)NC(=O)[C@H](Cc1c[nH]c2ccccc12)NC(=O)[C@H](CCC(N)=O)NC(=O)CCCCNC(=O)CN1CCN(CC(=O)O)CCN(CC(=O)O)CCN(CC(=O)O)CC1)C(C)C)C(N)=O [111In-DOTA-5-Ava-BBN[7-14]NH2] [metal not drawn] stay below 0.1 % ID?
// result Criterion not met

// query Lab log: compare recorded Avg % ID, Spleen with 0.1 % ID; is it strictly lower for CSCC[C@H](NC(=O)[C@H](CC(C)C)NC(=O)[C@H](Cc1cnc[nH]1)NC(=O)CNC(=O)[C@@H](NC(=O)[C@H](C)NC(=O)[C@H](Cc1c[nH]c2ccccc12)NC(=O)[C@H](CCC(N)=O)NC(=O)CCNC(=O)CN1CCN(CC(=O)O)CCN(CC(=O)O)CCN(CC(=O)O)CC1)C(C)C)C(N)=O [111In-DOTA-β-Ala-BBN[7-14]NH2] [metal not drawn] ?
// result Criterion met

// query Confirm or reject: Avg % ID, Spleen of CSCC[C@H](NC(=O)[C@H](CC(C)C)NC(=O)[C@H](Cc1cnc[nH]1)NC(=O)CNC(=O)[C@@H](NC(=O)[C@H](C)NC(=O)[C@H](Cc1c[nH]c2ccccc12)NC(=O)[C@H](CCC(N)=O)NC(=O)CN1CCN(CC(=O)O)CCN(CC(=O)O)CCN(CC(=O)O)CC1)C(C)C)C(N)=O [149Pm-DOTA-0-BBN[7-14]NH2] lies strictly below 0.1 % ID
// result Criterion met

All figures here come from patent US20060067886A1.
